Assay: NCI Yeast Anticancer Drug Screen. Data for the mlh1 rad18 strain (AID 175)
Details: S. cerevisiae mlh1 rad18 strain growth inhibition; at 5.0 µM (retest, dose inferred, filed as 0.5); active compounds read high
Procedure: Growth inhibition of yeast strains with defined genetic alterations is measured as a screen for potential anti-cancer activity. Selected strains with alterations in DNA damage repair or cell cycle control were exposed to compounds and growth inhibition was measured relative to vehicle treated controls. The strain used in this assay is mlh1 rad18
About 79,000 compounds went through this panel and 15% of them were active in at least one assay; those are over-represented in the sample as a whole.
Label rule, in plain words: growth inhibition of 10% and up is True, under 10% is False.

*Q* Does the compound COc1ccc2ccc(OC)c(C=O)c2c1 have recorded growth inhibition that is 10% or more?
*A* False

*Q* Does the compound N/C(=N\N=C\c1cc(I)cc(I)c1O)NO have recorded growth inhibition that is 10% or more?
*A* True
